Biological target: Dopamine (DA) uptake (Rattus norvegicus)
Construct: The suspension was used as a crude synaptosome fraction
Sequence (P23977 whole entry): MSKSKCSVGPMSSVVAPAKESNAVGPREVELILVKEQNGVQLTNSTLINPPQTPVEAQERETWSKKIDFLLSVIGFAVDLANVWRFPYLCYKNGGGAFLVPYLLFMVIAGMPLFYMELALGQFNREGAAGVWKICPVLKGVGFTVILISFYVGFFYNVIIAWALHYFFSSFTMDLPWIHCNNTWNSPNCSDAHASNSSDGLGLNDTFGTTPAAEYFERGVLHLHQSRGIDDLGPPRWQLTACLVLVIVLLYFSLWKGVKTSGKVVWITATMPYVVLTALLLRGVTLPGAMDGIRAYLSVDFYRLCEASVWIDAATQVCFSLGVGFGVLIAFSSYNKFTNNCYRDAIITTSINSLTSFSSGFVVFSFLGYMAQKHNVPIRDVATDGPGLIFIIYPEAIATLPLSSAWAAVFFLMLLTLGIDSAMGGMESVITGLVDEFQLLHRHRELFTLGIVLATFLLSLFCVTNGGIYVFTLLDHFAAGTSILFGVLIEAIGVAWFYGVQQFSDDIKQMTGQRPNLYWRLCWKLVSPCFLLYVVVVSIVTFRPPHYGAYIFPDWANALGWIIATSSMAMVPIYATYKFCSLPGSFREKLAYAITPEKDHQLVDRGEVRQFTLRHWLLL
Assay: Dopamine (DA) uptake inhibitory activity using rat brain synaptosome (corpus striatum)
Conditions: tritium-labeled DA 2 nM, 37° C. ten minutes, read-out: 50% Inhibitory concentration
pIC50: −log10 of the molar value.
PROPERTY: pIC50

- COMPOUND: "CC1(C)CN(c2ccc3ccsc3c2)[C@H]2CCCC[C@@H]2N1"
  SUBJECT_OF_TEST: "Dopamine (DA) uptake (Rattus norvegicus)"
  TEST_VALUE: 8.10
- COMPOUND: "CC[C@@H]1CN(c2ccc3ccccc3c2)[C@H]2CCCC[C@@H]2N1C (relative stereo)"
  SUBJECT_OF_TEST: "Dopamine (DA) uptake (Rattus norvegicus)"
  TEST_VALUE: 7.13
- COMPOUND: "Cc1c(Cl)cccc1N1CC(C)(C)N[C@H]2CCCC[C@H]21"
  SUBJECT_OF_TEST: "Dopamine (DA) uptake (Rattus norvegicus)"
  TEST_VALUE: 7.27
- COMPOUND: "C[C@@H]1CN(c2ccc(F)c3occc23)[C@H]2CCCC[C@@H]2N1"
  SUBJECT_OF_TEST: "Dopamine (DA) uptake (Rattus norvegicus)"
  TEST_VALUE: 7.31
- COMPOUND: "C[C@@H]1CN(c2ccc3ccc(C#N)cc3c2)[C@H]2CCCC[C@@H]2N1"
  SUBJECT_OF_TEST: "Dopamine (DA) uptake (Rattus norvegicus)"
  TEST_VALUE: 6.95

A: COc1cc2ccc(N3CC(C)(C)N[C@@H]4CCCC[C@H]43)cc2cc1C#N
B: CC1(C)CN(c2cccc3occc23)[C@H]2CCCC[C@@H]2N1
C: CC1(C)CN(c2ccc(OC(F)F)c3occc23)[C@@H]2CCCC[C@H]2N1
D: CN1[C@@H]2CCCC[C@@H]2N(c2cccc3occc23)CC1(C)C
List by increasing pIC50. Respond with an ordered listing of the labels, as requested.
C, A, B, D
